The measurements presented in this section are drawn from paper PMC7435853.

Molecular target: malolactic enzyme (MLE) (Oenococcus oeni)
Construct: full-length gene (1626 bp), His-tagged (HisTrap) from pET vector (text says pET28a and pET21a), E. coli BL21(DE3); reported dimer
Sequence (Q04DQ3 1-541): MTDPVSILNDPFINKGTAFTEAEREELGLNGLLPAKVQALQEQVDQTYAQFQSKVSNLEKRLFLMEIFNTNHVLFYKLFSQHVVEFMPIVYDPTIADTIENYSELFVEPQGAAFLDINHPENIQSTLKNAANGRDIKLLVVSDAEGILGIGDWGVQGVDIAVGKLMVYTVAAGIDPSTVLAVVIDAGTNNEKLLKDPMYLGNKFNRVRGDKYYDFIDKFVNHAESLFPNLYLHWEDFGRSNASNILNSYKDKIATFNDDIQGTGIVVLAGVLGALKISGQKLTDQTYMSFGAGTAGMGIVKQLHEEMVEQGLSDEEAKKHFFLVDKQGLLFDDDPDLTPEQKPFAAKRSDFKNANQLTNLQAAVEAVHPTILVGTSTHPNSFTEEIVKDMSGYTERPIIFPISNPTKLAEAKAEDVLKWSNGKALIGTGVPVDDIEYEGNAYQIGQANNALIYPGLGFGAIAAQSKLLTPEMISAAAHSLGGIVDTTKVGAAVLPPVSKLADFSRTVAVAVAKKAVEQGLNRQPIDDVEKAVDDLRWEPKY
Assay: isothermal titration calorimetry
Quantity name: pKd
Please report pKd as the negative decimal logarithm of the molar concentration, giving only the number.

Molecule	Assay system	Recorded number
O=C(O)C[C@H](O)C(=O)O [MAL^2−, L-malate (−2)]	malolactic enzyme (MLE) (Oenococcus oeni)	5.89

Kindly consider the entry below.
Give its pKd value. Item: O=C(O)C[C@H](O)C(=O)O [MAL^−, L-malate (−1)] 5.50
